Molecular target: acetylcholine receptor
Test: SPR, peptide at 10 uM on acetylcholine receptor

{"Binder": "KFTDK [5mer-995]", "Binding affinity (RU)": 18}
{"Binder": "RDPKR [5mer-985]", "Binding affinity (RU)": 17}
{"Binder": "RCEHR [5mer-696]", "Binding affinity (RU)": 11}
{"Binder": "KKWGR [5mer-658]", "Binding affinity (RU)": 31}
{"Binder": "KIEEK [5mer-662]", "Binding affinity (RU)": 28}
{"Binder": "RHDWR [5mer-666]", "Binding affinity (RU)": 18}
{"Binder": "RATPR [5mer-663]", "Binding affinity (RU)": 31}
{"Binder": "RTTGR [5mer-983]", "Binding affinity (RU)": 23}
{"Binder": "KIHEK [5mer-659]", "Binding affinity (RU)": 22}
{"Binder": "KYMNR [5mer-970]", "Binding affinity (RU)": 33}
{"Binder": "RDCER [5mer-957]", "Binding affinity (RU)": 30}
{"Binder": "KYTDR [5mer-964]", "Binding affinity (RU)": 22}
{"Binder": "RAPNK [5mer-963]", "Binding affinity (RU)": 24}
{"Binder": "RYWAR [5mer-973]", "Binding affinity (RU)": 12}
{"Binder": "RNPER [5mer-669]", "Binding affinity (RU)": 24}
{"Binder": "RDCHR [5mer-667]", "Binding affinity (RU)": 16}
{"Binder": "KMKMK [5mer-949]", "Binding affinity (RU)": 26}
